- Test system: 953936-095-R-J2-PDC spheroids with HUVEC/MSC, viability;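 also: spheroids exposed to compounds for seven days before read-out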
- Measurement protocol: Anticancer human tumor 953936-095-R-J2-PDC patient-derived cervical squamous cell carcinoma cell line growth inhibition [PI3K]
- Experimental context: second compound 10 µM; first compound 1 µM; active compounds read low
Result type: viability, T/C (%)
Report the value in % with no unit label.

Hello, please tell me recorded viability, T/C for this one: C[C@@H](NC(=O)c1ncnc(N)c1Cl)c1ncc(C(=O)Nc2cc(C(F)(F)F)c(Cl)cn2)s1 + CC(Nc1ncnc2nc[nH]c12)c1cc2cccc(Cl)c2c(=O)n1-c1ccccc1 80.7

Please give the documented viability, T/C of Cn1nccc1Nc1nccc(-c2ccn(C(CO)c3ccc(Cl)c(F)c3)c(=O)c2)n1 (stereo not given) + Cc1nc(NC(=O)N2CCCC2C(N)=O)sc1-c1ccnc(C(C)(C)C(F)(F)F)c1 4.57

Specify reported viability, T/C for the molecule shown: CC1(C)CCC(CN2CCN(c3ccc(C(=O)NS(=O)(=O)c4ccc(NCC5CCOCC5)c([N+](=O)[O-])c4)c(Oc4cnc5[nH]ccc5c4)c3)CC2)=C(c2ccc(Cl)cc2)C1 + CC(Nc1ncnc2nc[nH]c12)c1cc2cccc(Cl)c2c(=O)n1-c1ccccc1 60.8

Look up viability, T/C of CC(C)NCC(C(=O)N1CCN(c2ncnc3c2C(C)CC3O)CC1)c1ccc(Cl)cc1 (stereo not given) + CC(Nc1ncnc2nc[nH]c12)c1cc2cccc(Cl)c2c(=O)n1-c1ccccc1 and report it. 40

Answer with reported viability, T/C of CC(C)NCC(C(=O)N1CCN(c2ncnc3c2C(C)CC3O)CC1)c1ccc(Cl)cc1 (stereo not given) + Cc1nc(NC(=O)N2CCCC2C(N)=O)sc1-c1ccnc(C(C)(C)C(F)(F)F)c1 8.17

For CCCS(=O)(=O)Nc1ccc(F)c(C(=O)c2c[nH]c3ncc(-c4ccc(Cl)cc4)cc23)c1F + Cc1nc(NC(=O)N2CCCC2C(N)=O)sc1-c1ccnc(C(C)(C)C(F)(F)F)c1 , write its viability, T/C. 14.2

State its viability, T/C: CC1(C)CCC(Nc2ncc(C(F)(F)F)c(-c3c[nH]c4c(P(C)(C)=O)c(C#N)ccc34)n2)CN1 (stereo not given) + Cc1nc(NC(=O)N2CCCC2C(N)=O)sc1-c1ccnc(C(C)(C)C(F)(F)F)c1 10.3

Name the recorded viability, T/C of the molecule listed here: CNC(=O)c1ccc(N2C(=S)N(c3ccc(C#N)c(C(F)(F)F)c3)C(=O)C2(C)C)cc1F + Cc1nc(NC(=O)N2CCCC2C(N)=O)sc1-c1ccnc(C(C)(C)C(F)(F)F)c1 11

Give recorded viability, T/C. CCN1CCN(Cc2ccc(Nc3ncc(F)c(-c4cc(F)c5nc(C)n(C(C)C)c5c4)n3)nc2)CC1 + Cc1nc(NC(=O)N2CCCC2C(N)=O)sc1-c1ccnc(C(C)(C)C(F)(F)F)c1 11.1

Read the entry CC1(C)CCC(CN2CCN(c3ccc(C(=O)NS(=O)(=O)c4ccc(NCC5CCOCC5)c([N+](=O)[O-])c4)c(Oc4cnc5[nH]ccc5c4)c3)CC2)=C(c2ccc(Cl)cc2)C1 + Cc1nc(NC(=O)N2CCCC2C(N)=O)sc1-c1ccnc(C(C)(C)C(F)(F)F)c1 and write its reported viability, T/C. 11.8

For the molecule C#Cc1c(F)ccc2cc(O)cc(-c3ncc4c(N5CC6CCC(C5)N6)nc(OCC56CCCN5CC(F)C6)nc4c3F)c12 (stereo not given) + CC(Nc1ncnc2nc[nH]c12)c1cc2cccc(Cl)c2c(=O)n1-c1ccccc1 , report viability, T/C. 57.3

Kindly indicate its recorded viability, T/C. Item: CCCS(=O)(=O)Nc1ccc(F)c(C(=O)c2c[nH]c3ncc(-c4ccc(Cl)cc4)cc23)c1F + CC(Nc1ncnc2nc[nH]c12)c1cc2cccc(Cl)c2c(=O)n1-c1ccccc1 70.1

Sourced from PubChem BioAssay AID1963971
